Molecular target: T1, CB1 surface expression (CB1 TRex-CHO / TRex-293 cells) (Homo sapiens, UniProt P21554)
T1 construct: pcDNA4/TO native full length human CB1 receptor construct was transfected into tetracycline inducible system Trex-CHO and Trex-293 cells; expressed in transfected cells; tetracycline induced
T1 sequence (P21554 whole entry): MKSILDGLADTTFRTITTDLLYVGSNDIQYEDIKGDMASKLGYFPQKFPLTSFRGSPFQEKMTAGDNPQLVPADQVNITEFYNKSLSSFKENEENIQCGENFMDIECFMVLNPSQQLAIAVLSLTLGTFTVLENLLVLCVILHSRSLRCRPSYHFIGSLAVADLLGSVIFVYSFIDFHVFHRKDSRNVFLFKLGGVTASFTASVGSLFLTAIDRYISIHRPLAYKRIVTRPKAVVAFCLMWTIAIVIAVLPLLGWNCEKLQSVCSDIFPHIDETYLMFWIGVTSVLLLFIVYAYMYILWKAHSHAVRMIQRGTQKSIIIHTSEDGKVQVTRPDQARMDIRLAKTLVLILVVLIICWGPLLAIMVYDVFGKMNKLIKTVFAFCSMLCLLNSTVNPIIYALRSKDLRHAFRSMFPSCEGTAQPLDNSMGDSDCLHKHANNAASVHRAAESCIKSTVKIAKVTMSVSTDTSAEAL
Type: cell-based
Conditions: 1 hour
PROPERTY LABEL: CB1 receptor internalization induced by the substance alone

{"MOLECULE": "PA2LR3-P5E7: phage-derived CB1 antibody clone (antibody, V domains shown, PA2LR3-P5E7 Heavy Chain Variable region; PA2LR3-P5E7 Light Chain Variable region, phage-derived CB1 antibody clone) VH: EVQLQQSGAELVRPGSSVKISCKASGYAFSNYWMNWVKQRPGQGLEWIGQIYPGDGDTNFNGKFKGRAILTADISSNTAYMQLSSLTSEDSAVYFCARSHGNYFPYWGQGTLVTVSA VL: DIVLTQSPTTMAASPGEKITITCSASSSISSNYLHWYQQKPGFSPKLLIYRTSTLASGVPARFSGSGSGTSYSLTISSMEAEDAATYYCHQYHRSPHTFGSGTKLEIK", "EXPERIMENTAL VALUE": "do not induce"}
{"MOLECULE": "PA2LR3-P3A8: phage-derived CB1 antibody clone (antibody, V domains shown, PA2LR3-P3A8 Heavy Chain Variable Region; PA2LR3-P3A8 Light Chain Variable Region, phage-derived CB1 antibody clone) VH: EVQLQQSGAELVRPGSSVKISCKASGYAFSYYWMNWVKQRPGQGLEWIGQIYPGDGDTNYNGKVKGKATLTADKSSSTAYMQLSSLTSEDSAVYFCARSHGNYFAYWGQGTLVTVSA VL: DIVMTQSPAIMSASLGERVTMTCTASSSVSSSYLHWYQQKPGSSPKLWIYSTSNLASGVPARFSGSGSGTSYSLTISSMEAEDAATYYCQQWSSNPLTFGAGTKLELK", "EXPERIMENTAL VALUE": "do not induce"}
{"MOLECULE": "PA2LR3-P6G7: anti-CB1 antibody; HC variable SEQ ID NO: 58, LC variable SEQ ID NO: 62 (antibody, V domains shown, PA2LR3-P6G7 Heavy chain variable region; PA2LR3-P6G7 Light chain variable region) VH: EVQLQQSGAELVRPGSSVKISCKASGFAFSNYWMNWVKQRPGQGLEWIGQIYPGDGDTNFNGKFKGRAILTADISSNTAYMQLSSLTSEDSAVYFCARSHGNYFPYWGQGTLVTVSA VL: DIVLTQSPAIMSASLGERVTMTCTASSSVSSSYLHWYQQKPGSSPKLWIYSTSNLASGVPARFSGSGSGTSYSLTISSMEAEDAATYYCHQHHRSPPTFGAGTKLELK", "EXPERIMENTAL VALUE": "do not induce"}
